test: Measurement of Δλmax (UV-Vis absorption spectra in 20.0% 1,2-hexanediol aqueous solution and in water); type: physicochemical; conditions: maximum absorption wavelength in 20.0% by mass aqueous solution of 1,2-hexanediol; coloring material 0.002 to 0.005%
MEASURE: λmaxD (nm)
# value in nm; strip the unit string

// below: answered compounds
q: Returns the measured λmaxD for the input compound. Input: Cc1ccc(S(=O)(=O)Nc2cc(S(=O)(=O)[O-])cc3cc(S(=O)(=O)[O-])c(N=Nc4cc(Cl)ccc4Oc4ccccc4)c(O)c23)cc1.[Na+].[Na+] [C.I. Acid Red 249]
a: 520.0

q: Looking for the measured λmaxD of COc1cc(N=Nc2cccc(S(=O)(=O)O)c2)ccc1NC(=O)Nc1ccc(N=Nc2cccc(S(=O)(=O)O)c2)cc1OC [C.I. Direct Yellow 132] , can you help?
a: 411.0

q: Need λmaxD, item Cc1c(C#N)c(Nc2ccc(S(=O)(=O)O)cc2)nc(Nc2ccc(S(=O)(=O)O)cc2)c1N=Nc1nc(-c2ccc3ccccc3c2)c(N=Nc2cc(S(=O)(=O)O)c3cc(S(=O)(=O)O)cc(S(=O)(=O)O)c3c2)s1 [black coloring material 4]
a: 604.0

q: Need λmaxD, item Nc1cc2c(O)c(N=Nc3ccc(N=Nc4ccc(S(=O)(=O)[O-])cc4)c4ccc(S(=O)(=O)[O-])cc34)c(S(=O)(=O)[O-])cc2cc1S(=O)(=O)[O-].[Na+].[Na+].[Na+].[Na+] [C.I. Food Black 2]
a: 595.0

Now look at this one.
q: GET /values?readout=λmaxD&item= CC(C)(C)c1nn(-c2cc(C(=O)O)cc(C(=O)O)c2)c(N)c1N=Nc1nnc(SCCSc2nnc(N=Nc3c(C(C)(C)C)nn(-c4cc(C(=O)O)cc(C(=O)O)c4)c3N)s2)s1 [yellow coloring material 1]
a: 451.5

---

Assay: Measurement of Δλmax (UV-Vis absorption spectra in 20.0% 1,2-hexanediol aqueous solution and in water)
Type: physicochemical
Conditions: maximum absorption wavelength in 20.0% by mass aqueous solution of 1,2-hexanediol; coloring material 0.002 to 0.005%
Source text: Specifically, the ink according to the present invention contains a first coloring material and a second coloring material satisfying the following conditions. […] Further, the sum of the Δλmax1 and the Δλmax2 needs to be 35.0 or less. λmax refers to a maximum absorption wavelength in the visible region (380 to 750 nm) in a UV-Vis absorption spectrum of a coloring material, and can be measured using a spectrophotometer. […]
MEASURE: λmaxD (nm)
Provide only the numeric value, understood in nm.

q: Data request, read-out λmaxD, for CCc1cc(C)c(S(=O)(=O)O)c(CC)c1Nc1nc(N(c2nc3ccc(S(=O)(=O)O)cc3s2)c2c(CC)cc(C)c(S(=O)(=O)O)c2CC)cc(C)c1N=Nc1c(C#N)c(C(C)(C)C)nn1-c1nc2ccc(S(=O)(=O)O)cc2s1
a: 559.5

q: Quick one: λmaxD for COc1cc(N=Nc2cccc(S(=O)(=O)O)c2)ccc1Nc1nc(NCCS(=O)(=O)O)nc(Nc2ccc(N=Nc3cccc(S(=O)(=O)O)c3)cc2OCCCS(=O)(=O)O)n1 ?
a: 382.0

q: Item under review: Cc1cc(Nc2nc(NCCS(=O)(=O)O)nc(Nc3ccc(N=Nc4ccc(N=Nc5ccc(S(=O)(=O)O)cc5)cc4S(=O)(=O)O)c(C)c3)n2)ccc1N=Nc1ccc(N=Nc2ccc(S(=O)(=O)O)cc2)cc1S(=O)(=O)O . Reported λmaxD?
a: 408.0

Others:
q: // query λmaxD value for entry O=C(O)c1nn(-c2ccc(S(=O)(=O)O)cc2)c(O)c1N=Nc1ccc(S(=O)(=O)O)cc1
a: 430.5

q: Any idea what λmaxD was measured for Cc1c(C#N)c(Nc2ccc(S(=O)(=O)O)cc2)nc(Nc2ccc(S(=O)(=O)O)cc2)c1N=Nc1sc(N=Nc2ccccc2C#N)c(-c2ccc(Nc3nc(NCCS(=O)(=O)O)nc(Nc4cc(S(=O)(=O)O)ccc4S(=O)(=O)O)n3)cc2)c1C#N ?
a: 630.5

q: State the recorded λmaxD for this entry: Cn1c(=O)c(C(=O)c2cccc(S(=O)(=O)O)c2)c2c3c(c(Nc4cc(Nc5nc(NCCNc6nc(Nc7cc(Nc8ccc9c%10c8C(=O)c8ccccc8-c%10c(C(=O)c8cccc(S(=O)(=O)O)c8)c(=O)n9C)c(S(=O)(=O)O)cc7S(=O)(=O)O)nc(Oc7ccc(S(=O)(=O)O)cc7)n6)nc(Oc6ccc(S(=O)(=O)O)cc6)n5)c(S(=O)(=O)O)cc4S(=O)(=O)O)ccc31)C(=O)c1ccccc1-2
a: 512.0

---

experiment: Measurement of Δλmax (UV-Vis absorption spectra in 20.0% 1,2-hexanediol aqueous solution and in water); assay type: physicochemical; conditions: maximum absorption wavelength in ion-exchange water; coloring material 0.002 to 0.005%
In this section we review reported λmaxW values for a set of compounds.
Quick reminder: number only, in nm, skip the unit.

q: What does the record list as λmaxW for COc1cc(N=Nc2cccc(S(=O)(=O)O)c2)ccc1NC(=O)Nc1ccc(N=Nc2cccc(S(=O)(=O)O)c2)cc1OC [C.I. Direct Yellow 132] ?
a: 405.5

Others:
q: Would you mind telling me what λmaxW value was observed for O=C(O)c1nn(-c2ccc(S(=O)(=O)O)cc2)c(O)c1N=Nc1ccc(S(=O)(=O)O)cc1 [C.I. Acid Yellow 23] ?
a: 427.0

q: Give its λmaxW value. Item: COc1cc(N=Nc2cccc(S(=O)(=O)O)c2)ccc1Nc1nc(NCCS(=O)(=O)O)nc(Nc2ccc(N=Nc3cccc(S(=O)(=O)O)c3)cc2OCCCS(=O)(=O)O)n1 [yellow coloring material 4]
a: 391.5

q: Given the entry Cc1cc(Nc2nc(NCCS(=O)(=O)O)nc(Nc3ccc(N=Nc4ccc(N=Nc5ccc(S(=O)(=O)O)cc5)cc4S(=O)(=O)O)c(C)c3)n2)ccc1N=Nc1ccc(N=Nc2ccc(S(=O)(=O)O)cc2)cc1S(=O)(=O)O [yellow coloring material 3] , report its measured λmaxW.
a: 417.0

q: What value of measured λmaxW is listed for CCc1cc(C)c(S(=O)(=O)O)c(CC)c1Nc1nc(N(c2nc3ccc(S(=O)(=O)O)cc3s2)c2c(CC)cc(C)c(S(=O)(=O)O)c2CC)cc(C)c1N=Nc1c(C#N)c(C(C)(C)C)nn1-c1nc2ccc(S(=O)(=O)O)cc2s1 [magenta coloring material 1] ?
a: 555.0

Cited source for all entries: patent US8992674B2
